System: HCT116 (ATCC – CCL-247, colon carcinoma)
assay.procedure: MTT cell viability assay, HCT116
Type: cell-based
experimental.setup: Homo sapiens, HCT-116, read-out: IC50 HCT116
pIC50: −log10 of the molar value.
Label scheme for pIC50: lower than 4 is No, 4 and above is Yes.

compound	class
N#CC1=C(N)Oc2c(c(=O)oc3ccccc23)C1c1ccc(-n2ccnn2)cc1 (stereo not drawn) [Compound 15f]	No
Cc1cncn1-c1ccc(C2C(C#N)=C(N)OC3=C2C(=O)CC(C)(C)C3)cc1 (stereo not drawn) [Compound 8c]	No
Cc1ccc(-n2cc(COc3ccc(C4C(C#N)=C(N)Oc5c4c(=O)oc4ccccc54)cc3)nn2)cc1 (stereo not drawn) [Compound 15d]	No
N#CC1=C(N)Oc2c(c(=O)oc3ccccc23)C1c1ccc(OCc2cn(-c3ccc(Br)cc3)nn2)cc1 (stereo not drawn) [Compound 15c]	No
N#CC1=C(N)OC2=C(C(=O)CCC2)C1c1ccc(-n2ccc(C(F)(F)F)n2)cc1 (stereo not drawn) [Compound 7e]	Yes
Cc1nccn1-c1ccc(C2C(C#N)=C(N)OC3=C2C(=O)CC(C)(C)C3)cc1 (stereo not drawn) [Compound 8a]	No
Cc1cnn(-c2ccc(C3C(C#N)=C(N)OC4=C3C(=O)CCC4)cc2)c1 (stereo not drawn) [Compound 7b]	No
Cc1cc2c(c(=O)o1)C(c1ccc(OCc3cn(-c4ccccc4)nn3)cc1)C(C#N)=C(N)O2 (stereo not drawn) [Compound 17a]	No
N#CC1=C(N)OC2=C(C(=O)CCC2)C1c1ccc(-n2cc(Br)cn2)cc1 (stereo not drawn) [Compound 7d]	Yes
Cc1cc2c(c(=O)o1)C(c1ccc(-n3ccnn3)cc1)C(C#N)=C(N)O2 (stereo not drawn) [Compound 17f]	No
N#CC1=C(N)Oc2c(c(=O)oc3ccccc23)C1c1ccc(OCc2cn(-c3ccc(Cl)cc3)nn2)cc1 (stereo not drawn) [Compound 15b]	No
